# target.entity: human RORγt LBD (Homo sapiens (Human), UniProt P51449)
# Sequence (P51449 258-518): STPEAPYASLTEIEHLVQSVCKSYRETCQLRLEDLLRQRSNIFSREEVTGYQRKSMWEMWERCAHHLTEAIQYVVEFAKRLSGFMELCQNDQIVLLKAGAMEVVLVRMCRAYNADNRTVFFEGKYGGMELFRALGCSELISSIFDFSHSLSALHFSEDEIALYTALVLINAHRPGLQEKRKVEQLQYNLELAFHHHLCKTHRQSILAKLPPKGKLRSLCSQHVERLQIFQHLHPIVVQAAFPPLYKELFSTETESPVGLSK
# protocol.description: RORγt reporter assay (GAL4-RORγt LBD luciferase in HEK293T cells)
# Format: cell-based
# test.conditions: HEK293T cells, 6 μM
quantity.measured: RORγt reporter Assay, % inhibition @ 6 μM (%)
Answers are plain numbers, in %.

Sample records with RORγt reporter Assay, % inhibition @ 6 μM:
Cn1cncc1C(O)(c1ccc(C(F)(F)F)nc1)c1ccc2nc(C#N)c(Cc3ccc(-n4cccn4)cc3)cc2c1 (single isomer, unassigned) [Example 70C]
85
COc1nc2c(OC)cc(C(O)(c3ccc(C(F)(F)F)nc3)c3cncn3C)cc2c(Cl)c1Cc1ccc(-n2cccn2)cc1 (single isomer, unassigned) [Example 59C]
108
Cn1cncc1C(O)(c1ccc(C(F)(F)F)nc1)c1ccc2nc(N3CCC3)c(Cc3ccc(-n4cccn4)cc3)c(Cl)c2c1 (single isomer, unassigned) [Example 68C]
100
COc1nc2ccc(C(O)(c3ccc(C#N)cc3)c3cncn3C)cc2c(C#N)c1Cc1ccc(C(F)(F)F)cc1 (single isomer, unassigned) [Example 96C]
97

What value of RORγt reporter Assay, % inhibition @ 6 μM has been reported for the following compound? COc1nc2c(C)cc(C(O)(c3ccc(Cl)cc3)c3cncn3C)cc2c(Cl)c1Cc1ccc(-n2cccn2)cc1 (single isomer, unassigned) [Example 28C]
97
